Entries annotated with measured pest or weed control at 80 g/ha
- System: AVEFA
- run.description: Pre-emergence herbicidal action against AVEFA
- Type: in vivo, Avena fatua
- condition: Avena fatua, 504 h; 80 g/ha, pre-emergence
Unit % implied. Number only.

compound	pest or weed control at 80 g/ha, %
CCNC(=O)c1c(C(F)(F)F)ccc(C(=O)Nc2nnnn2CC)c1C [Example 2-26]	100

Enquiry: Hello, I am looking for reported pest or weed control at 80 g/ha with AVEFA for Cn1nnnc1NC(=O)c1ccc(Br)c(C(=O)NCC(F)(F)F)c1Cl [Example 1-181] . Could you help?
Return: 80

Enquiry: Hello, I am looking for reported pest or weed control at 80 g/ha with AVEFA for CCNC(=O)c1c(C(F)F)ccc(C(=O)Nc2nnnn2C)c1C [Example 1-45] . Could you help?
Return: 90

Enquiry: Hello, I am looking for reported pest or weed control at 80 g/ha with AVEFA for CNC(=O)c1c(Br)ccc(C(=O)Nc2nnnn2C)c1Cl [Example 1-177] . Could you help?
Return: 100

Enquiry: Hello, I am looking for reported pest or weed control at 80 g/ha with AVEFA for CCc1c(C(=O)Nc2nnnn2C)ccc(C(F)(F)F)c1C(=O)NC [Example 1-271] . Could you help?
Return: 80

---

- Test system: POLCO
- run.description: Pre-emergence herbicidal action against POLCO
- Assay type: in vivo, Polygonum convolvulus
- condition: Fallopia convolvulus, 504 h, dosage 20 g/ha
measure.name: pest or weed control at 20 g/ha (%)
Unit % implied. Number only.

Look over these answered cases.
compound	tgt	units.symbol	pest or weed control at 20 g/ha
CC(C)NC(=O)c1c(C(F)(F)F)ccc(C(=O)Nc2nnnn2C)c1Cl [Example 1-137]	POLCO	%	80
CC(=O)NC(=O)c1c(C(F)(F)F)ccc(C(=O)Nc2nnnn2C)c1Cl [Example 1-337]	POLCO	%	80
CCc1c(C(=O)Nc2nnnn2CC)ccc(C(F)F)c1C(=O)NC1CC1 [Example 2-279]	POLCO	%	80

// next item, pest or weed control at 20 g/ha requested
Enquiry: Hello, I am looking for reported pest or weed control at 20 g/ha with POLCO for CCn1nnnc1NC(=O)c1ccc(C(F)(F)F)c(C(=O)NC)c1Cl [Example 2-129] . Could you help?
Return: 100

---

- Tested on: MATIN
- run.description: Pre-emergence herbicidal action against MATIN
- Format: in vivo, Matricaria inodora
- condition: Tripleurospermum inodorum, 504 h, dosage 80 g/ha
- Description: Seeds of monocotyledonous and dicotyledonous weed plants and crop plants are laid out in sandy loam soil in wood-fiber pots and covered with soil. […] The damage to the test plants is scored visually after a test period of 3 weeks by comparison with untreated controls (herbicidal activity in percent (%): 100% activity=the plants have died, 0% activity=like control plants). […]
Entries annotated with measured pest or weed control at 80 g/ha
Unit % implied. Number only.

Enquiry: So what does the record say about pest or weed control at 80 g/ha for CNC(=O)c1c(OC)ccc(C(=O)Nc2nnnn2C)c1Cl ?
Return: 80

Enquiry: So what does the record say about pest or weed control at 80 g/ha for CCCNC(=O)c1c(C(F)(F)F)ccc(C(=O)Nc2nnnn2C)c1C ?
Return: 100

Enquiry: So what does the record say about pest or weed control at 80 g/ha for CCNC(=O)c1c(C(F)(F)F)ccc(C(=O)Nc2nnnn2CC)c1Br ?
Return: 100

---

- Test system: ABUTH
- run.description: Pre-emergence herbicidal action against ABUTH
- Type: in vivo, Abutilon theophrasti
- condition: dosage 20 g/ha, scored visually after 3 weeks vs untreated controls, 100% = plants have died, 0% = like control plants
measure.name: Pre-emergence action against ABUTH (herbicidal activity in percent) (%)
Unit % implied. Number only.

Look over these answered cases.
compound	units.symbol	value.reported
Cc1nnc(NC(=O)c2ccc(C(F)F)c(C(=O)NC(C)C3CC3)c2C)o1 (stereo not drawn)	%	100
CCn1nnnc1NC(=O)c1ccc(C(F)F)c(C(=O)NC)c1OC	%	100

Enquiry: So what does the record say about Pre-emergence action against ABUTH (herbicidal activity in percent) for CCc1c(C(=O)Nc2nnnn2CC)ccc(C(F)(F)F)c1C(=O)NC ?
Return: 100

Enquiry: So what does the record say about Pre-emergence action against ABUTH (herbicidal activity in percent) for COCCNC(=O)c1c(C(F)(F)F)ccc(C(=O)Nc2nnnn2C)c1Cl ?
Return: 100

Enquiry: So what does the record say about Pre-emergence action against ABUTH (herbicidal activity in percent) for Cn1nnnc1NC(=O)c1ccc(C(F)F)c(C(=O)NCC2CC2)c1Br ?
Return: 100

Enquiry: So what does the record say about Pre-emergence action against ABUTH (herbicidal activity in percent) for CCn1nnnc1NC(=O)c1ccc(Br)c(C(=O)NC(C)C2CC2)c1Cl (stereo not drawn) ?
Return: 100

Enquiry: So what does the record say about Pre-emergence action against ABUTH (herbicidal activity in percent) for CCn1nnnc1NC(=O)c1ccc(C(F)(F)F)c(C(=O)NC(C)C2CC2)c1SC (stereo not drawn) ?
Return: 100

Enquiry: So what does the record say about Pre-emergence action against ABUTH (herbicidal activity in percent) for CCCNC(=O)c1c(C(F)F)ccc(C(=O)Nc2nnc(C)o2)c1Cl ?
Return: 90

Enquiry: So what does the record say about Pre-emergence action against ABUTH (herbicidal activity in percent) for Cn1nnnc1NC(=O)c1ccc(C(F)(F)F)c(C(=O)NCC2CC2)c1Cl ?
Return: 100

Enquiry: So what does the record say about Pre-emergence action against ABUTH (herbicidal activity in percent) for CCn1nnnc1NC(=O)c1ccc(C(F)F)c(C(=O)NCC(F)F)c1Br ?
Return: 100

Enquiry: So what does the record say about Pre-emergence action against ABUTH (herbicidal activity in percent) for CNC(=O)c1c(C(F)F)ccc(C(=O)Nc2nnco2)c1SC ?
Return: 80

Enquiry: So what does the record say about Pre-emergence action against ABUTH (herbicidal activity in percent) for CCNC(=O)c1c(C(F)F)ccc(C(=O)Nc2nnnn2CC)c1OC ?
Return: 100

Enquiry: So what does the record say about Pre-emergence action against ABUTH (herbicidal activity in percent) for CCNC(=O)c1c(C(F)F)ccc(C(=O)Nc2nnnn2CC)c1C ?
Return: 80

Enquiry: So what does the record say about Pre-emergence action against ABUTH (herbicidal activity in percent) for CSc1c(C(=O)Nc2nnnn2C)ccc(C(F)(F)F)c1C(=O)NCC(F)F ?
Return: 100

Enquiry: So what does the record say about Pre-emergence action against ABUTH (herbicidal activity in percent) for CCn1nnnc1NC(=O)c1ccc(C(F)F)c(C(=O)NCC2CC2)c1C ?
Return: 100

Enquiry: So what does the record say about Pre-emergence action against ABUTH (herbicidal activity in percent) for CCn1nnnc1NC(=O)c1ccc(C(F)(F)F)c(C(=O)NC(C)C2CC2)c1Cl (stereo not drawn) ?
Return: 100

Enquiry: So what does the record say about Pre-emergence action against ABUTH (herbicidal activity in percent) for CCn1nnnc1NC(=O)c1ccc(C(F)(F)F)c(C(=O)NC2CCC2)c1C ?
Return: 100

Enquiry: So what does the record say about Pre-emergence action against ABUTH (herbicidal activity in percent) for CCn1nnnc1NC(=O)c1ccc(C(F)F)c(C(=O)Nc2ccccc2)c1Cl ?
Return: 90

---

- System: MATIN
- run.description: Post-emergence herbicidal action against MATIN
- Type: in vivo, Matricaria inodora
- condition: Tripleurospermum inodorum, 504 h, dosage 20 g/ha
measure.name: pest or weed control at 20 g/ha (%)
Unit % implied. Number only.

compound	pest or weed control at 20 g/ha [%]
CCCNC(=O)c1c(C(F)(F)F)ccc(C(=O)Nc2nnnn2CC)c1C [Example 2-32]	90
CCNC(=O)c1c(C(F)(F)F)ccc(C(=O)Nc2nnc(C)o2)c1Cl [Example 6-117]	90
Cc1c(C(=O)Nc2nnnn2C)ccc(C(F)F)c1C(=O)NC(C)C [Example 1-346]	90
CCn1nnnc1NC(=O)c1ccc(I)c(C(=O)NC2CC2)c1Cl [Example 2-197]	80
CNC(=O)c1c(C(F)(F)F)ccc(C(=O)Nc2nnnn2C)c1Cl [Example 1-129]	90

Enquiry: So what does the record say about pest or weed control at 20 g/ha for CNC(=O)c1c(C(F)(F)F)ccc(C(=O)Nc2nnnn2C)c1C [Example 1-25] ?
Return: 100

Enquiry: So what does the record say about pest or weed control at 20 g/ha for CCn1nnnc1NC(=O)c1ccc(C(F)(F)F)c(C(=O)NC2CC2)c1SC [Example 2-83] ?
Return: 100

Enquiry: So what does the record say about pest or weed control at 20 g/ha for COc1c(C(=O)Nc2nnnn2C)ccc(C(F)(F)F)c1C(=O)NC1CC1 [Example 1-58] ?
Return: 90

Enquiry: So what does the record say about pest or weed control at 20 g/ha for Cc1c(C(=O)Nc2nnnn2C)ccc(C(F)F)c1C(=O)NC1CC1 [Example 1-46] ?
Return: 80
